- METHOD_SUMMARY: Antitumor activity against human H1299 cells assessed as cell viability after 3 days by sulforhodamine B assay
- Type: functional, cell-based
- CONDITION_SET: NCI-H1299, 72 h
PROPERTY_MEASURED: IC50

Problem: Param item = OCc1cn(Cc2cccc(F)c2)c2ccc(Cl)cc12 ; retrieve measured IC50.
Solution: ≥ 13 µM

* * *

- METHOD_SUMMARY: Stability of compound at pH 2
- Assay type: physicochemical
- CONDITION_SET: buffer
PROPERTY_MEASURED: Stability

Here's what some known entries look like.
>  <ENTRY_SMILES>
O=Cc1cn(Cc2cccc(C(F)(F)F)c2)c2ccccc12

>  <PROPERTY_MEASURED>
Stability

>  <ASSAY_RESULT>
Stable

$$$$
>  <ENTRY_SMILES>
O=Cc1cn(Cc2ccc(Cl)cc2)c2ccc(F)cc12

>  <PROPERTY_MEASURED>
Stability

>  <ASSAY_RESULT>
Stable

$$$$
>  <ENTRY_SMILES>
O=Cc1cn(CCCOc2ccc(Cl)cc2)c2ccccc12

>  <PROPERTY_MEASURED>
Stability

>  <ASSAY_RESULT>
Stable

$$$$
>  <ENTRY_SMILES>
O=Cc1cn(Cc2ccccc2)c2ccccc12

>  <PROPERTY_MEASURED>
Stability

>  <ASSAY_RESULT>
Stable

$$$$
>  <ENTRY_SMILES>
OCc1cn(Cc2ccc(C(F)(F)F)cc2)c2ccccc12

>  <PROPERTY_MEASURED>
Stability

>  <ASSAY_RESULT>
Unstable

$$$$
>  <ENTRY_SMILES>
O=Cc1cn(Cc2ccc(Cl)cc2)c2ccc(Cl)cc12

>  <PROPERTY_MEASURED>
Stability

>  <ASSAY_RESULT>
Stable

$$$$

Problem: Param item = COc1ccc2c(c1)c(CO)cn2Cc1ccc(Cl)cc1 ; retrieve measured Stability.
Solution: Unstable

Problem: Also check O=Cc1cn(Cc2ccc(Br)cc2)c2ccccc12
Solution: Stable

Problem: Also check OCc1cn(Cc2ccc(Br)cc2)c2ccccc12
Solution: Unstable

Problem: Also check Cc1cccc(Cn2cc(CO)c3ccccc32)c1
Solution: Unstable

Problem: Also check OCc1cn(Cc2ccc(Cl)cc2)c2ccccc12
Solution: Unstable

Problem: Also check O=Cc1cn(Cc2ccc(Cl)cc2)c2ccccc12
Solution: Stable

Problem: Also check OCc1cn(Cc2ccccc2)c2ccccc12
Solution: Unstable

* * *

The reader will find reported IC50 values listed item by item below.
- System: NCI-H460
- METHOD_SUMMARY: Cytotoxicity against human H460 cells assessed as cell viability after 3 days by sulforhodamine B assay
- Format: functional, cell-based
- CONDITION_SET: NCI-H460, 72 h
Numbers only; they are read as nM.

>  <ENTRY_SMILES>
OCc1cn(Cc2cccc(F)c2)c2ccccc12

>  <IC50, nM>
40

$$$$

Problem: Param item = O=Cc1cn(Cc2ccc(Cl)cc2)c2cc(F)ccc12 ; retrieve measured IC50.
Solution: 120

Problem: Also check COCc1cn(Cc2ccc(Cl)cc2)c2ccccc12
Solution: 1990

Problem: Also check Cn1cc(CO)c2cc(F)ccc21
Solution: 16900

Problem: Also check CC(=O)c1cn(Cc2ccccc2)c2ccccc12
Solution: 10000
